Please respond with reported melting point for every item in the list.

# input Give the value of melting point reported for the following: CN1CCN(c2cccc3ccc(C(O)c4ccccc4)cc23)CC1 (stereo not given)
# output 162 to 163 °C

# input Given CC1NC(=O)N(C)N=C1c1ccccc1 (stereo not given) , respond with its melting point.
# output 99.5 to 101 °C

# input Recall and state the measured melting point for CC(C#Cc1ccc(-c2cccnc2S)o1)N(O)C(N)=O (stereo not given) .
# output 145 °C

# input Provide melting point value for the following compound: `CCCCCCc1ccc(C(=O)Nc2ccc3cc(CN4CCCC4)cnc3c2C)cc1`
# output 116 °C

# input Give recorded melting point. `N#Cc1ccc(C(=O)NCCCCn2cnc3c(N)nc4ccccc4c32)cc1`
# output 223 to 225 °C

# input Specify reported melting point for the compound shown: Nc1nc(Br)nc2c1ncn2C1OC(CO)C(O)C1F (stereo not given)
# output 209 to 210 °C

# input Consider the compound `COc1cc(N)c(Cl)cc1C(=O)NCC1CCN(CCCCCC(=O)c2ccc(C)cc2)CC1` . State its measured melting point.
# output 130 to 131 °C

# input Give the value of melting point reported for the following: CC(=O)OC1CSC(Oc2ccc(-c3ccncc3)nc2F)C(OC(C)=O)C1OC(C)=O (stereo not given)
# output 164 °C

# input # return recorded melting point for input CCCC[C@H](NC(=O)C(CS)C(F)(F)F)C(=O)O (stereo not given in full)
# output 96 to 98 °C

# input Indicate its recorded melting point; the compound in question is `COc1c(Cl)ccc(Cl)c1C(=O)NN`
# output 144 to 145 °C

----------
Field: melting point. Provide a value for each of the compounds that follow.

# input Give melting point for the following compound: `CCc1nn2c(-c3ccc(Cl)cc3Cl)nc(C)nc2c1N(CC)CC`
# output 98 to 99 °C

# input Read off the recorded melting point for `O=C(O)CCc1oc(Oc2ccccc2)nc1-c1ccc(Cl)cc1`
# output 136 to 137 °C

# input Identify the reported melting point for the following entry. `COC(=O)Cc1ccc(O)c(F)c1`
# output 32 to 34 °C

# input Name the recorded melting point of the item CC(C)(C)OC(=O)N1CCC(CS(=O)Cc2cc(C(F)(F)F)cc(C(F)(F)F)c2)(c2ccccc2)CC1 (stereo unspecified) in your answer.
# output 123 to 134 °C

# input Note down melting point recorded for `CC(C)=CCCC(C)=CCCC(C)=CC=CC(C)=CC(=O)O`
# output 78.4 °C

# input Hello, please tell me recorded melting point for this one: `COc1cc(-c2ccccc2F)nc(-c2cccc(C)n2)n1`
# output 99.5 °C

----------
measurement-kind: melting point

# input Item CCn1cc(C(=O)O)c(=O)c2cc(F)c(N3CC(C)C(CN)C3)c(F)c21 (configuration not stated) : provide melting point
# output 222 to 224 °C

# input Annotate the compound CSc1csc2c1CCN(C)CC2c1ccccc1 (configuration not stated) with its measured melting point.
# output 93 °C

# input # return recorded melting point for entry COc1ccc(C2(c3ccc(OC(F)F)cc3)N=C(N)N(C)C2=O)cc1C#N (configuration not stated)
# output 104 to 105 °C

# input Please give measured melting point of the following entry: `CCCc1nc(C(=O)O)c(C(=O)O)[nH]1`
# output 261 to 263 °C

# input Give a short answer stating reported melting point for `COc1ccc(C(Cc2ccccc2)=NO)cc1` .
# output 132 to 135 °C

# input Input `CSc1nc(O)c(NC(=O)c2ccco2)c(O)n1` , output reported melting point.
# output 124 to 125 °C

# input Quickly give me recorded melting point for `CN1CCN(CC(=O)N2c3ccccc3C(=S)Nc3cccnc32)CC1`
# output 240 to 241 °C

# input Quote melting point reported for `COc1cc(OC)nc(NC(=O)NS(=O)(=O)Oc2ccccc2-c2nnco2)n1` please.
# output 161 to 164 °C

# input Supply reported melting point belonging to this compound: `COCCc1nc2c(N)nc3cc(OCc4cccc([N+](=O)[O-])c4)ccc3c2n1CC(C)(C)O`
# output 125 to 127 °C

# input Could you please provide reported melting point for `c1ccc(-c2noc3ccccc23)c(CNCc2ccccc2-c2noc3ccccc23)c1` ? Thanks!
# output 138 °C

# input Please supply the value of reported melting point for the item COc1ccc(C2Cc3cc(OC)c(OC)c(OC)c3C2=O)cc1 (configuration not stated)
# output 104 to 106 °C

# input Provide one value: measured melting point of `CCCCCOc1c(OC)ccc(C(=O)NCCc2ccc(OCc3ccccc3)cc2)c1CCO`
# output 93.4 to 93.7 °C

# input Please list melting point recorded for the compound `O=C(NCCN1CCCC1)c1ccc(-c2ccc3nnn(Cc4ccc5ncccc5c4)c3n2)cc1F`
# output 183 to 186 °C

# input Indicate its recorded melting point; the compound in question is `CC(=O)Oc1ccc(C(=O)O)cc1C`
# output 169 to 171 °C

# input Consider the compound `CCCc1nc2c(N)nc3ccccc3c2n1CCC(OCC)OCC` and give its recorded melting point.
# output 148 to 150 °C

# input Let me know recorded melting point for `CCOC(=O)c1c(O)c2ccc(F)cc2c(=O)n1CC(C)C` , thanks.
# output 104 to 105 °C

# input Complete the entry with melting point for `Cc1nc(O)cc2sccc12`
# output 225 to 227 °C

# input For the compound Cn1cc(-c2noc(C(N)CN3CCCCC3)n2)c2ccccc21 (configuration not stated) , give its measured melting point value.
# output 146 to 147 °C

# input Supply recorded melting point for `O=S(=O)(Nc1ccc(I)cc1)c1ccccc1` here.
# output 141 to 143 °C

# input Answer with the recorded melting point for the compound listed here: C=CCC1Oc2c(C)c(C)c(O)c(C)c2S1 (configuration not stated)
# output 78.5 to 79.5 °C

# input For `CSC1=Nc2ccc(C(=O)c3cccnc3)cc2CN1` , write its melting point.
# output 156 °C

# input Name the recorded melting point of the compound listed here: `Cn1cnc(S(=O)(=O)NC(CN2CCOCC2)CN2CCOCC2)c1`
# output 191 to 192 °C
